Assay: Volume of distribution at steady state in BALB/c mouse at 1 mg/kg, iv or 3 mg/kg, po by LC-MS/MS analysis
Assay type: ADME, organism-based
Details: in vivo, read-out: Vdss
metric: Vd (L/kg)
The response must be a number in L/kg with no trailing unit.

Incoming: Vd lookup needed for COc1ncc(N2CCc3ncnc(-c4ccnc(NC5CCN(C)CC5)c4)c3C2)cc1C , thanks.
Outgoing: 7.17

* * *

Assay: Half life in BALB/c mouse at 1 mg/kg, iv or 3 mg/kg, po by LC-MS/MS analysis
Format: ADME, organism-based
Settings: in vivo
metric: half-life (h)
Lab book: enter the figure in h, no units written.

INSERT INTO measurements (structure, metric, observedvalue) VALUES
  ('COc1ncc(N2CCc3ncnc(O[C@H]4CCN(C(=O)C5CCOCC5)C4)c3C2)cc1C', 'half-life', 0.67);

Incoming: Param item = COc1ncc(N2CCc3ncnc(-c4ccnc(NC5CCN(C)CC5)c4)c3C2)cc1C ; retrieve measured half-life.
Outgoing: 4

All figures here come from ChEMBL document CHEMBL4368932.
